Multiple publications report IC50 for Tyrosine-protein kinase JAK3 (Homo sapiens); what follows is a combined list.

compound: CNC(=O)c1cc2ccc1C(=O)NCCCCCNc1nc(ncc1C)Nc1cc-2cnc1F
targetOrTestSystem: Tyrosine-protein kinase JAK3 (Homo sapiens)
observedValue: 1 to 10 µM
--
compound: CCn1nc(Nc2cc(OC3CCC(NC[C@@H](O)C(F)(F)F)CC3)cc3c2ncn3C)cc1C (stereo in doubt)
targetOrTestSystem: Tyrosine-protein kinase JAK3 (Homo sapiens)
observedValue: 6.16 µM
--
compound: Cc1ccnc(NC(=O)c2ccc(Oc3ccnc4[nH]nc(N[C@@H]5CCCN(C(=O)C6CCNCC6)C5)c34)cc2)c1
targetOrTestSystem: Tyrosine-protein kinase JAK3 (Homo sapiens)
observedValue: > 10 µM

Challenge: Write down the reported IC50 (system: Tyrosine-protein kinase JAK3 (Homo sapiens)) of Nc1cccc(-c2ccnc3[nH]cc(C(=O)c4cc(F)ccc4F)c23)c1
Response given: ≤ 10 µM

====

Collected literature values of IC50 measured for Tyrosine-protein kinase JAK3 (Homo sapiens).

// below: answered compounds
compound: CCC(=O)c1cnc(Nc2cnc(O[C@@H]3CCN(C)C3)c(C)n2)cc1Nc1cccc(-c2ncn(C)n2)c1OC
IC50: ≥ 500 nM
--
compound: COCCNc1n[nH]c2nccc(Oc3ccc(C(=O)Nc4cc(C(F)(F)F)ccn4)cc3)c12
IC50: > 10000 nM

Challenge: State measured IC50 of the compound COc1ccc(C(=O)N2CC3(CC(N(C)c4ncnc5[nH]ccc45)C3)C2)cc1 with Tyrosine-protein kinase JAK3 (Homo sapiens).
Response given: ≥ 10000 nM

Challenge: State, for Tyrosine-protein kinase JAK3 (Homo sapiens), measured IC50 of the compound listed here: C=CC(=O)Nc1cccc(Nc2ncc(C)c(Nc3ccccc3)n2)c1
Response given: < 10 nM

Challenge: Recall the reported IC50 of C=CC(=O)Nc1cccc(Oc2nc(Nc3ccc(CCN4CCN(CC)CC4)cc3)nc3ccsc23)c1 on Tyrosine-protein kinase JAK3 (Homo sapiens) and write it down.
Response given: 50 to 100 nM

Challenge: Report measured IC50 on Tyrosine-protein kinase JAK3 (Homo sapiens); entry: Cn1cc(-c2cc3nccn3c(-c3ccn(C4(CC#N)CN(CC(F)(F)F)C4)n3)n2)cn1
Response given: > 1000 nM

Challenge: With Tyrosine-protein kinase JAK3 (Homo sapiens) as the test system, provide measured IC50 for this compound: N#CCNC(=O)C1CCCN(Nc2ncnc3[nH]ccc23)C1 (centres unmarked)
Response given: 10 to 100 nM

Challenge: Provide Tyrosine-protein kinase JAK3 (Homo sapiens) IC50 reading for CCC(CC)n1cc(-c2nc(-c3cnn(CC(CO)CO)c3)cn3nccc23)cn1 .
Response given: 1000 to 10000 nM

Challenge: Please look at O=C(Nc1nc2cccc([C@@H]3CCC4(CCN(C(=O)[C@@H]5CC5(F)F)CC4)C3)n2n1)C1CC1 and tell me its recorded IC50 on Tyrosine-protein kinase JAK3 (Homo sapiens).
Response given: > 10000 nM

Challenge: Provide measured IC50 on Tyrosine-protein kinase JAK3 (Homo sapiens) for COc1ccc(-c2cc3c(N[C@H](C)c4ccccc4F)c(C(N)=O)cnn3c2)cn1 please.
Response given: 13.5 nM

Challenge: Enter recorded IC50 with Tyrosine-protein kinase JAK3 (Homo sapiens) for CCCCO[C@H]1CNc2cc(Nc3ncc(C(N)=O)c(NC4CC4)n3)ccc2OC1 here.
Response given: 10 to 100 nM

Challenge: Answer with IC50 of COc1ccc(C(=O)Nc2ccc(C)c(-c3ccc4c(c3)[nH]c3ncncc34)c2)cc1C(F)(F)F measured for Tyrosine-protein kinase JAK3 (Homo sapiens).
Response given: ≤ 500 nM

Challenge: Report value: IC50, system: Tyrosine-protein kinase JAK3 (Homo sapiens), compound: CCCS(=O)(=O)N[C@H]1C[C@@H](Nc2c(-c3cc(C(=O)NC)ccn3)cnc3[nH]ccc23)C1
Response given: 10 to 100 nM

Challenge: Check Tyrosine-protein kinase JAK3 (Homo sapiens) data and give IC50 for C=CC(=O)Nc1cccc(Oc2nc(Nc3ccc(S(N)(=O)=O)cc3)nc3ccsc23)c1 .
Response given: ≤ 50 nM
